Where do the numbers come from? From patent US20190328910A1.

# key: entry, value: IC50
# targetDesc: αvβ3 integrin (purified) (UniProt P06756 31-992; P05106 27-718)
# Sequence (P06756 31-992, chain 1 of 2): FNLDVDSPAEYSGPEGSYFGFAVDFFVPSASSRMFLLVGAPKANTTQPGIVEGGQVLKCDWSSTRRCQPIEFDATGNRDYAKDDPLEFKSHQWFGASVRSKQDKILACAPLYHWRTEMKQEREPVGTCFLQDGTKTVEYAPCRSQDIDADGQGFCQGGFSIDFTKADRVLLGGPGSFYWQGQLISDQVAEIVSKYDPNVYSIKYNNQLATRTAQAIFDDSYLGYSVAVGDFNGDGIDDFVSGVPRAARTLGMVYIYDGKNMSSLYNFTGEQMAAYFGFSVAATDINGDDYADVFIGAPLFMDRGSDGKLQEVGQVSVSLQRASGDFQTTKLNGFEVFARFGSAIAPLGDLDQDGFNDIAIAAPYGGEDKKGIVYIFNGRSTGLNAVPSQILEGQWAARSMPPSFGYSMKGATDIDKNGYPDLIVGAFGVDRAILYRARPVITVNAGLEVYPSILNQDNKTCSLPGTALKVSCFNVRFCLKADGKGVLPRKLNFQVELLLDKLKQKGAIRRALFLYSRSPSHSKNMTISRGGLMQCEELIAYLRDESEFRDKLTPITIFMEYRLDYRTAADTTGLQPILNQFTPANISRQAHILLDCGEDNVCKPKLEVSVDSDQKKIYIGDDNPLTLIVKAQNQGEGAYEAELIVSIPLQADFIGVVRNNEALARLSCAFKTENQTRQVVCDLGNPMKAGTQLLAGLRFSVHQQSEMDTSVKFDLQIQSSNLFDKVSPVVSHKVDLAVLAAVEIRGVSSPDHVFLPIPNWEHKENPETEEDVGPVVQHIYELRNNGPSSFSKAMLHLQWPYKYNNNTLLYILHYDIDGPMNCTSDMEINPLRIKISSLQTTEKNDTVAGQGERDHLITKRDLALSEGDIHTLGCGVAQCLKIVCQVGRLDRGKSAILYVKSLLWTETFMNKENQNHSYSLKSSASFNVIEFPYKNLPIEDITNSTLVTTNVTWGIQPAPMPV
# Sequence (P05106 27-718, chain 2 of 2): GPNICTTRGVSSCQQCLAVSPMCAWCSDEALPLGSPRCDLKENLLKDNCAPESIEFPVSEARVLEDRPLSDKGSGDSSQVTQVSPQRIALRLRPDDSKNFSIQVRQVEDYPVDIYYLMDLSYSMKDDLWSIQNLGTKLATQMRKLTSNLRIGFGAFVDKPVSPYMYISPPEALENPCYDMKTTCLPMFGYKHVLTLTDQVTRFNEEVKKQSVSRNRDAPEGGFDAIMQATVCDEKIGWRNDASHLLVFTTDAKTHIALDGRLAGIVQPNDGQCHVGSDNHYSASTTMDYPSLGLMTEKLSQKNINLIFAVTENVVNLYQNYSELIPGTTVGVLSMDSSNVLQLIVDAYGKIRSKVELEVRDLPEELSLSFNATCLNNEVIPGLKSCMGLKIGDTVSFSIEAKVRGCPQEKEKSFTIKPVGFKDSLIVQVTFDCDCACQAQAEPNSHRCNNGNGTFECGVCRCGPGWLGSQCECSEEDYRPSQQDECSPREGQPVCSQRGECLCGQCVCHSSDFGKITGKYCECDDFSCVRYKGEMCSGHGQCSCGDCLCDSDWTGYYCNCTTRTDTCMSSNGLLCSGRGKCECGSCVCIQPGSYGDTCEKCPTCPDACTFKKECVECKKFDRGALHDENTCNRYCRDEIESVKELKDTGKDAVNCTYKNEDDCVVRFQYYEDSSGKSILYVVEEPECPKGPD
# experimentDescription: competitive binding ELISA, purified integrin; competitor biotinylated natural ligand
*: point of attachment. Benzoyl(4-F) = O=C(c1ccc(F)cc1)*
measuredAttribute: IC50 (nM)

binder | quantitativeReadout
H-RGDLADLRK(Benzoyl(4-F))-NH2 (free N-terminus; also called Peptide 3) [ST1-60, …(FB)] | 500
H-RGDLMKLAK(Benzoyl(4-F))-NH2 (SMILES CSCC[C@H](NC(=O)[C@H](CC(C)C)NC(=O)[C@H](CC(=O)O)NC(=O)CNC(=O)[C@@H](N)CCCNC(=N)N)C(=O)N[C@@H](CCCCN)C(=O)N[C@@H](CC(C)C)C(=O)N[C@@H](C)C(=O)N[C@@H](CCCCNC(=O)c1ccc(F)cc1)C(N)=O, free N-terminus; also called Peptide 2) [ST1-59, …(FB)] | 2200
H-RGDLRELAK(Benzoyl(4-F))-NH2 (SMILES CC(C)C[C@H](NC(=O)[C@H](CCC(=O)O)NC(=O)[C@H](CCCNC(=N)N)NC(=O)[C@H](CC(C)C)NC(=O)[C@H](CC(=O)O)NC(=O)CNC(=O)[C@@H](N)CCCNC(=N)N)C(=O)N[C@@H](C)C(=O)N[C@@H](CCCCNC(=O)c1ccc(F)cc1)C(N)=O, free N-terminus; also called Peptide 5) [ST1-61, …(FB)] | 300
